# Target system: Norovirus surrogate virus-like particle, type GII.4 Minerva strain (human Norovirus GII.4 Minerva strain)
# Assay explanation: SPR, unpurified peptide against nVLP GII.4
Threshold check on Avg Binding (Spot 1/2): strictly below 200 is Condition met; on or above 200 is Condition not met.

| Binder | Classification |
| --- | --- |
| RWVRVKLRSHTELNRYIGSC [Mut Peptide-93] | Condition not met |

Does this binder meet the criterion Avg Binding (Spot 1/2) < 200? SWARSNNKRSKAFNLGWGSC [Mut Peptide-78]
Condition met

Quick check: Avg Binding (Spot 1/2) of RWVRVKLRSHTKLNRYIGSC [Mut Peptide-94] under 200?
Condition not met

The measured values listed here are drawn from patent US9766239.
